B1: F1*; the commonest letter at each place (parent)
chain: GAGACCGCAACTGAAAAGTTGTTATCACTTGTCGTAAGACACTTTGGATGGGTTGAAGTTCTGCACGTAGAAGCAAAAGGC

# Variants of: B1
# ASSAY: fraction ligated after 30 min (ligated reads / total reads); higher = more ligase activity
# TEST CONTEXT: with F1*sub RNA substrate (template-directed ligation), 42 °C
REPORTED PROPERTY: fraction ligated
Number only, please.

- MUTATION DESCRIPTOR: "T25C A39G"
  fraction ligated: 0.786
- MUTATION DESCRIPTOR: "T35G A37G"
  fraction ligated: 0.847
- MUTATION DESCRIPTOR: "G38A A48T"
  fraction ligated: 0.252
- MUTATION DESCRIPTOR: "T29C A41C"
  fraction ligated: 0.768
- MUTATION DESCRIPTOR: "A37T T44C"
  fraction ligated: 0.847

Reported fraction ligated of G55A A56T A57C : 0.0139

Reported fraction ligated of T23A C42G : 0.822
